metric: log10 vapour pressure (mmHg)
Give bare numbers.

# example entries with known answers
In [3]: df
Out[3]:
                                   compound  observed
0  COC(=O)c1c(C(F)F)nc(C(F)(F)F)c(C2=NCCS2)c1CC(C)C     -5.65
1                    O=P(OCCCl)(OCCCl)OCCCl     -1.21
2                              FC(Cl)(Cl)Cl       2.9
3               CCOP(=O)(OCC)OP(=O)(OCC)OCC     -3.58

// batch mode: one log10 vapour pressure (mmHg) value per listed entry
1. CCC(Cl)CC
2. Cc1ccc2ccc(C)cc2c1
3. Clc1cc(Cl)c(-c2c(Cl)cc(Cl)cc2Cl)c(Cl)c1
4. CC(=O)CCC(=O)O
5. Clc1ccc(Cl)c(-c2cc(Cl)c(Cl)cc2Cl)c1
6. CCC(C(C)C)C(C)C
7. CCN(CC)C(=O)C(C)Oc1cccc2ccccc12 (configuration not stated)
8. CCc1cc(C)cc(CC)c1

stdout:
1.67
-2.25
-4.92
-2.95
-4.6
1
-6.76
0.0017

# batch size: 6; output log10 vapour pressure (mmHg) per entry
1. CCCCCCCCCCCCCCCCc1ccccc1
2. C=CCOC(C)=O
3. Cc1cc(C)c(O)c(C(C)(C)C)c1
4. Clc1ccc(-c2ccccc2)c(Cl)c1
5. CC(=O)C=Cc1ccccc1
6. CC(C)(c1ccccc1)c1ccc(O)cc1

stdout:
[-5.45, 1.43, -1.35, -2.86, -1.91, -4.23]

Report log10 vapour pressure (mmHg) for each item below.
1. OCCS
2. CC(C)(C)C(=O)C(Oc1ccc(Cl)cc1)n1cncn1 (configuration not stated)
3. CC(C)(C)S
4. C=C(C)C(C)(C)CC
5. CCCCC(C)CCC (configuration not stated)
6. C=C(C)[C@@H]1CC=C(C)C(=O)C1
7. c1ccc(SSc2ccccc2)cc1

stdout:
[0.244, -7.82, 2.26, 1.48, 0.835, -0.988, -3.66]

====

metric: log10 vapour pressure (mmHg)
One number for each entry.

Answered examples (10):
>>> print(df.to_string())
                            compound  observed
0                    C=Cc1ccc(Br)cc1    -0.108
1                                C=C      4.72
2                CCOP(=S)(OCC)SCCSCC     -4.01
3                         Cc1ccccc1C      0.82
4                  CC(C)(OO)c1ccccc1     -2.49
5              O=C(Cl)OCCOCCOC(=O)Cl     -2.83
6           CNC(=O)N(C)c1nc2ccccc2s1     -6.95
7              CCSC(=O)N(CC)C1CCCCC1      -2.7
8                     O=CC(Cl)(Cl)Cl       1.7
9  CC(CO)c1ccccc1 (stereo not drawn)     -1.72

Each compound below has a reported value. Please supply its log10 vapour pressure (mmHg).
1. Cc1ccc(C)c(C)c1
2. Clc1cc(Cl)c(-c2c(Cl)ccc(Cl)c2Cl)cc1Cl

stdout:
[0.322, -5.07]

// batch mode: one log10 vapour pressure (mmHg) value per listed entry
1. CNc1ccccc1
2. c1cnccn1
3. CCCC(C)=C(C)C

stdout:
-0.344
1.03
1.26

Hi there! I need log10 vapour pressure (mmHg) for each item below, if you can.
1. O=C(O)CN(CCN(CC(=O)O)CC(=O)O)CC(=O)O
2. CCCCCOC(=O)CC
3. CC1=CCC(C(C)C)=CC1
4. Cc1ccc(NC(=O)N(C)C)cc1Cl
5. CCCCCCl
6. c1ccc2c(c1)cc1ccc3cccc4ccc2c1c34

stdout:
[-11.8, 0.556, 0.0362, -7.44, 1.52, -8.26]

Each of the following entries comes with a recorded value; kindly state log10 vapour pressure (mmHg) for each.
1. CC(C)(C)O
2. CCCC(=NOCC)C1=C(O)CC(CC(C)SCC)CC1=O (stereo not drawn)
3. CC(C)C[N+](=O)[O-]

stdout:
1: 1.61; 2: -6.8; 3: 0.838

For each of the compounds below, state log10 vapour pressure (mmHg).
1. CCCc1ccccc1O
2. CNO
3. Cc1ccc2ccccc2n1
4. C=CCc1ccc(OC(C)=O)c(OC)c1

stdout:
-1.05
0.222
-2.02
-2.5

Hi! Can you tell me log10 vapour pressure (mmHg) for each of these compounds?
1. Cc1cc(Cl)ccc1O[C@H](C)C(=O)O
2. CCC(CC)CO
3. C1CCCNCC1

stdout:
1: -5.58; 2: 0.185; 3: 0.908

Give measured log10 vapour pressure (mmHg) for every item shown.
1. COC(=O)CC(C)=O
2. COC(=O)Nc1nc2ccccc2[nH]1

stdout:
-0.0496
-9.12

Look at each compound and report its log10 vapour pressure (mmHg).
1. Cc1ccn2nc(S(=O)(=O)Nc3c(F)cccc3F)nc2n1
2. OCCCBr
3. C=C(C)OC
4. Cc1ccccn1
5. Clc1cc2c(Cl)c(Cl)c(Cl)cc2c(Cl)c1Cl
6. COc1ccccc1

stdout:
1. -11.6
2. -1
3. 2.71
4. 1.05
5. -6.46
6. 0.549
